So I've got a bunch of compounds here, and I need their relative viability values.
System: NCI-H1666
Assay: relative viability (nuclei count vs DMSO), 5 days (fraction); higher = more cells survive
Conditions: first compound 4 µM
Answer with a bare number; do not write a unit.

Reported relative viability for NCI-H1666, given Cc1sc2c(c1C)C(c1ccc(Cl)cc1)=N[C@@H](CC(=O)OC(C)(C)C)c1nnc(C)n1-2 [JQ1] + CC(=O)c1c(C)c2cnc(Nc3ccc(N4CCNCC4)cn3)nc2n(C2CCCC2)c1=O [Palbociclib] (partner 0.5 µM) ?
0.568

Reported relative viability for NCI-H1666, given Cc1sc2c(c1C)C(c1ccc(Cl)cc1)=N[C@@H](CC(=O)OC(C)(C)C)c1nnc(C)n1-2 [JQ1] + NC(=O)Nc1cc(-c2cccc(F)c2)sc1C(=O)N[C@H]1CCCNC1 [AZD7762] (partner 0.2 µM) ?
0.488

Reported relative viability for NCI-H1666, given Cc1sc2c(c1C)C(c1ccc(Cl)cc1)=N[C@@H](CC(=O)OC(C)(C)C)c1nnc(C)n1-2 [JQ1] + C[C@]1(O)C[C@@H](c2nc(-c3ccc4ccc(-c5ccccc5)nc4c3)c3c(N)nccn32)C1 [Linsitinib] (partner 1 µM) ?
0.484

Reported relative viability for NCI-H1666, given Cc1sc2c(c1C)C(c1ccc(Cl)cc1)=N[C@@H](CC(=O)OC(C)(C)C)c1nnc(C)n1-2 [JQ1] + CS(=O)(=O)CCNCc1ccc(-c2ccc3ncnc(Nc4ccc(OCc5cccc(F)c5)c(Cl)c4)c3c2)o1 [Lapatinib] (partner 2 µM) ?
0.288

Reported relative viability for NCI-H1666, given Cc1sc2c(c1C)C(c1ccc(Cl)cc1)=N[C@@H](CC(=O)OC(C)(C)C)c1nnc(C)n1-2 [JQ1] + N=C(N)NC(=N)NCCc1ccccc1 [Phenformin] (partner 250 µM) ?
0.486

====

So I've got a bunch of compounds here, and I need their relative viability values.
Test system: NCI-H1734
Assay: relative viability (nuclei count vs DMSO), 5 days (fraction); higher = more cells survive
Conditions: first compound 2.53 µM
Answer with a bare number; do not write a unit.

Query (compound): O=c1[nH]c2ccccc2n1C1CCN(CCCC(c2ccc(F)cc2)c2ccc(F)cc2)CC1 [Pimozide] + COc1cccc2cc(-c3nc([C@H]4CC[C@H](C(=O)O)CC4)n4ncnc(N)c34)[nH]c12 [OSI-027] (partner 0.5 µM) ; field requested: relative viability
0.581

Query (compound): Cc1cnc(-c2cnc(NCCNc3ccc(C#N)cn3)nc2-c2ccc(Cl)cc2Cl)[nH]1 + Cc1nc(Nc2ncc(C(=O)Nc3c(C)cccc3Cl)s2)cc(N2CCN(CCO)CC2)n1 [Dasatinib] (partner 0.075 µM) ; field requested: relative viability
0.415

====

Tested on: NCI-H358
Assay: relative viability (nuclei count vs DMSO), 5 days (fraction); higher = more cells survive
Details: first compound 0.4 µM
measurement type: relative viability
Answer with a bare number; do not write a unit.

Query (compound): Cc1sc2c(c1C)C(c1ccc(Cl)cc1)=N[C@@H](CC(=O)OC(C)(C)C)c1nnc(C)n1-2 [JQ1] + COc1cc2c(Oc3ccc(NC(=O)C4(C(=O)Nc5ccc(F)cc5)CC4)cc3F)ccnc2cc1OCCCN1CCOCC1 [Foretinib] (partner 0.25 µM) ; field requested: relative viability
0.685

Query (compound): Cc1sc2c(c1C)C(c1ccc(Cl)cc1)=N[C@@H](CC(=O)OC(C)(C)C)c1nnc(C)n1-2 [JQ1] + Nc1nc2[nH]cc(CCc3ccc(C(=O)N[C@@H](CCC(=O)O)C(=O)O)cc3)c2c(=O)[nH]1 [Pemetrexed] (partner 0.2 µM) ; field requested: relative viability
0.199

Query (compound): Cc1sc2c(c1C)C(c1ccc(Cl)cc1)=N[C@@H](CC(=O)OC(C)(C)C)c1nnc(C)n1-2 [JQ1] + O=C(c1cc(Cc2n[nH]c(=O)c3ccccc23)ccc1F)N1CCN(C(=O)C2CC2)CC1 [Olaparib] (partner 8 µM) ; field requested: relative viability
0.604

Query (compound): Cc1sc2c(c1C)C(c1ccc(Cl)cc1)=N[C@@H](CC(=O)OC(C)(C)C)c1nnc(C)n1-2 [JQ1] + Cc1cc(Nc2cc(N3CCN(C)CC3)nc(Sc3ccc(NC(=O)C4CC4)cc3)n2)n[nH]1 [Tozasertib] (partner 0.1 µM) ; field requested: relative viability
0.124

Query (compound): Cc1sc2c(c1C)C(c1ccc(Cl)cc1)=N[C@@H](CC(=O)OC(C)(C)C)c1nnc(C)n1-2 [JQ1] + Nc1ncn([C@H]2C[C@H](O)[C@@H](CO)O2)c(=O)n1 [Decitabine] (partner 2 µM) ; field requested: relative viability
0.235

Query (compound): Cc1sc2c(c1C)C(c1ccc(Cl)cc1)=N[C@@H](CC(=O)OC(C)(C)C)c1nnc(C)n1-2 [JQ1] + CC(=O)c1c(C)c2cnc(Nc3ccc(N4CCNCC4)cn3)nc2n(C2CCCC2)c1=O [Palbociclib] (partner 0.5 µM) ; field requested: relative viability
0.153

Hello, the source for this data is the supplement of paper PMC10307832, in case you need it.
